Target: 5-hydroxytryptamine receptor 6 (Homo sapiens, UniProt P50406)
Sequence (P50406 whole entry): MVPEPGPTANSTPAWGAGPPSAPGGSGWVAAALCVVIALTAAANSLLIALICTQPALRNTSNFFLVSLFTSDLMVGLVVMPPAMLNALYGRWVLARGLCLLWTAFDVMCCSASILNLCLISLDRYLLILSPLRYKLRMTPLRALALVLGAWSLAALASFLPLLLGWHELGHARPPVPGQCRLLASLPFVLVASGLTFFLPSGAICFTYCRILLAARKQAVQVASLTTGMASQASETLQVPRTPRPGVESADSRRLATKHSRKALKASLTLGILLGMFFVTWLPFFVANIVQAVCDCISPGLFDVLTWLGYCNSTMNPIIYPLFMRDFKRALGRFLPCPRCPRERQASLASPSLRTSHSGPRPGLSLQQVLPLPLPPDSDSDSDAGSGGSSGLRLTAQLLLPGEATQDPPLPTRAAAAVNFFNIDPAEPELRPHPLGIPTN
Assay: Antagonist activity at human recombinant 5HT6 receptor expressed in HEK293 cells assessed as inhibition of serotonin-induced cAMP production
Format: functional, cell-based
Give measured log10 IC50 for each item. Keep answers brief.
In our notation, the value equals log10 of IC50 in µM.

## Task Give reported log10 IC50 value for CN(Cc1ccccc1)c1nc2c(S(=O)(=O)c3ccc(Br)cc3)nnn2c2ccsc12
## Result 0.29

## Task Give reported log10 IC50 value for Cc1ccc(S(=O)(=O)c2nnn3c2nc(NCc2ccc4c(c2)OCO4)c2sccc23)cc1
## Result 0.10

## Task Give reported log10 IC50 value for O=S(=O)(c1ccc(Br)cc1)c1nnn2c1nc(NCC1CCCO1)c1sccc12 (centres undefined)
## Result 0.21

## Task Give reported log10 IC50 value for Cc1ccc(S(=O)(=O)c2nnn3c2nc(NC2CCCCC2)c2sccc23)cc1
## Result -0.14

## Task Give reported log10 IC50 value for O=S(=O)(c1cccc(Cl)c1)c1nnn2c1nc(NC1CCCCC1)c1sccc12
## Result -1.16

## Task Give reported log10 IC50 value for CCN(Cc1ccccc1)c1nc2c(S(=O)(=O)c3ccc(Br)cc3)nnn2c2ccsc12
## Result -0.24

## Task Give reported log10 IC50 value for Cc1cc(Cl)cc(Nc2nc3c(S(=O)(=O)c4ccc(C)c(C)c4)nnn3c3ccsc23)c1
## Result 0.35

## Task Give reported log10 IC50 value for COc1ccccc1CNc1nc2c(S(=O)(=O)c3ccc(C)c(C)c3)nnn2c2ccsc12
## Result -0.33

## Task Give reported log10 IC50 value for CN(Cc1cccnc1)c1nc2c(S(=O)(=O)c3ccccc3)nnn2c2ccsc12
## Result -0.30
